Tested on: SNB-19
Assay: NCI tumour cell line growth inhibition, 48 h
Active and inactive are the calls of the source. Rule as the data show it: active = GI50 up to about 1.1 µM and inactive = higher.
measured-property: GI50

Solved cases (4 shown):
Query: Input `C/C(=N/NS(=O)(=O)c1ccccc1)c1cccc[n+]1[O-]` , output reported GI50.
Response: > 100 µM (inactive)

Query: Input `Cc1ccc(C(=O)/C=C2\Nc3ccccc3NC2=O)cc1` , output reported GI50.
Response: 10.6 µM (inactive)

Query: Input `CCOC(=O)Cc1csc(N/N=C2\C(=O)Nc3ccccc32)n1` , output reported GI50.
Response: 26.9 µM (inactive)

Query: Input O=C1CSC2=NC3=C(CSC/C3=C\c3ccc(Cl)cc3)C(c3ccc(Cl)cc3)N12 (stereo unspecified) , output reported GI50.
Response: 37.2 µM (inactive)

As a next step, examine the compound that follows.
Query: Input `Nc1nc(N)c2nn(-c3ccc(C(=O)O)cc3)nc2n1` , output reported GI50.
Response: > 100 µM (inactive)

###

Listing of entries alongside the reported GI50.
Tested on: DMS-273
Assay: NCI tumour cell line growth inhibition, 48 h
Active and inactive are the calls of the source. No stated cut-off is given here; in the data, active = GI50 up to about 1.1 µM and inactive = higher.

Solved cases (10 shown):
Query: Write GI50 of C[n+]1ccc(-c2cc[n+](C)cc2)cc1 [PARAQUAT DICHLORIDE] ; system used: DMS-273
Response: 10.5 µM (inactive)

Query: Write GI50 of C=C1C(=O)OC2/C=C(\CO)C(OC(C)=O)CC(O)/C(C)=C/C(OC(=O)C(C)CC)C12 (stereo unspecified) ; system used: DMS-273
Response: 19.1 µM (inactive)

Query: Write GI50 of `C[n+]1[se]c2ccccc2c1Cl` ; system used: DMS-273
Response: 20 µM (inactive)

Query: Write GI50 of `COc1ccc(/C(Cl)=C(\C=O)c2ccc(F)cc2)cc1` ; system used: DMS-273
Response: 14.9 µM (inactive)

Query: Write GI50 of `O=C(Cc1nc2sc3c(c2c(=O)[nH]1)CCCC3)Nc1ccccc1` ; system used: DMS-273
Response: > 100 µM (inactive)

Query: Write GI50 of CCCCCCCCOCC(O)CO (stereo unspecified) ; system used: DMS-273
Response: > 100 µM (inactive)

Query: Write GI50 of `c1ccc2c(c1)[Se]c1ccccc1[Se]2` ; system used: DMS-273
Response: > 100 µM (inactive)

Query: Write GI50 of `C=C(Cl)Cc1c(O)c2c(c(O)c1CC(=C)Cl)C(=O)c1ccccc1C2=O` ; system used: DMS-273
Response: > 100 µM (inactive)

Query: Write GI50 of CC(O)CN1C(=O)NC(Cc2ccccc2)C1=O (stereo unspecified) ; system used: DMS-273
Response: > 100 µM (inactive)

Query: Write GI50 of N/N=C(\C(=O)Nc1c(Cl)cc([N+](=O)[O-])cc1Cl)C(c1cnc2ccc([N+](=O)[O-])cc2n1)[N+](=O)[O-] (stereo unspecified) ; system used: DMS-273
Response: 38.6 µM (inactive)

As a next step, examine the compound that follows.
Query: Write GI50 of `CCOC(=O)C(=O)NC12CC3CC(CC(C3)C1)C2` ; system used: DMS-273
Response: > 100 µM (inactive)

###

Test system: KM12
Assay: NCI tumour cell line growth inhibition, 48 h
Calls of active or inactive are those of the source. Cut-off read from the data, not from the text of the source: active = GI50 up to about 1.1 µM and inactive = higher.
Your reply should match one of these outcome classes. TRUE = active, FALSE = inactive

Known results for compounds:
Query: // param item: CSCCC(NC(=O)OC(C)(C)C)C(=O)NCCNc1ccc(NCCNC(=O)C(CCSC)NC(=O)OC(C)(C)C)c2c1C(=O)c1ccccc1C2=O (centres undefined) ; yields the recorded call
Response: FALSE

Query: // param item: COC(=O)C(C(=O)C(=O)NC1=C(Cl)C(=O)c2ccccc2C1=O)c1csc(-n2nc(-c3ccccc3)cc2-c2ccccc2)n1 (centres undefined) ; yields the recorded call
Response: FALSE

Query: // param item: `O=C1NC(=O)C(CCC(=O)c2ccc3ccccc3c2)C(=O)N1` ; yields the recorded call
Response: FALSE

Query: // param item: `O=C(CC/C=C(/CS(=O)(=O)c1ccccc1)S(=O)(=O)c1ccccc1)c1ccccc1` ; yields the recorded call
Response: FALSE

Query: // param item: CSc1ncc2c(n1)-c1ccccc1OC2NC(C)(C)C (centres undefined) ; yields the recorded call
Response: FALSE

Others:
Query: // param item: `Cn1c2c(c3ccccc3c1=O)C(=O)c1ccccc1-2` ; yields the recorded call
Response: FALSE

Query: // param item: CN(C)C(=O)C(F)(F)C(c1ccc(Br)cc1)C1C(=O)N(C)C(=O)N(C)C1=O (centres undefined) ; yields the recorded call
Response: FALSE

###

System: A498
Experiment: NCI tumour cell line growth inhibition, 48 h
Calls of active or inactive are those of the source. No stated cut-off is given here; in the data, active = GI50 up to about 1.1 µM and inactive = higher.
measured-property: GI50

Query: Input COC(=O)C(=O)C(C(=O)OC)C(=O)C(=O)Nc1c(C)cccc1C (centres undefined) , output reported GI50.
Response: > 100 µM (inactive)

Query: Input `CN(CC(=O)O)c1ncc2c(n1)C=CCC2` , output reported GI50.
Response: > 100 µM (inactive)

Query: Input `CCC1(CC)C(=O)CC[C@@]2(C)C1=CC[C@H]1[C@@H]3CC[C@H](O)[C@@]3(C)CC[C@@H]12` , output reported GI50.
Response: 23.8 µM (inactive)

Query: Input `O=C(Nc1c(C(F)(F)F)cc(-c2ccccc2)[nH]c1=O)N1CCOCC1` , output reported GI50.
Response: > 100 µM (inactive)

Query: Input `CC(=O)/C(=C/NC(=S)c1ccncc1)C(=O)Nc1ccccc1C` , output reported GI50.
Response: > 100 µM (inactive)

Others:
Query: Input `COc1cccc(SSc2cccc(OC)c2C(=O)O)c1C(=O)O` , output reported GI50.
Response: > 100 µM (inactive)

Query: Input COC(=O)C(=O)OC1(C(C)=O)CC2(c3ccccc3)OC1(c1ccccc1)c1ccccc12 (centres undefined) , output reported GI50.
Response: 18.6 µM (inactive)

Query: Input `CC(=O)OCC(=O)O[C@@H]1[C@H]2[C@@H](OC(=O)c3ccccc3)[C@@H](C)C[C@]2(O)[C@H](OC(C)=O)[C@@]2(C)C[C@]1(OC(C)=O)C[C@H]1C(=O)C(C)(C)[C@@H](OC(C)=O)[C@@H]12` , output reported GI50.
Response: 13.4 µM (inactive)

Query: Input `O=C(Cc1nc2sc3c(c2c(=O)[nH]1)CCCC3)Nc1ccccc1` , output reported GI50.
Response: > 100 µM (inactive)

Query: Input `C=C1CCCCCCCCC/C=C/1SCCCSC` , output reported GI50.
Response: > 100 µM (inactive)

Query: Input `Cc1cc(=O)nc(S(=O)(=O)NC(=S)Nc2ccc(Cl)cc2)[nH]1` , output reported GI50.
Response: > 100 µM (inactive)

Query: Input `N#Cc1ccc(Oc2ccccc2)cc1C#N` , output reported GI50.
Response: > 100 µM (inactive)

Query: Input `Cc1nc2ccccc2c(=O)n1NC(=O)c1ccc(CS)cc1` , output reported GI50.
Response: 11.2 µM (inactive)

Query: Input CC(C)(O)C1CC(=O)C(C)(C2C(O)CC3(C)C4CC=C5C(CCC(O)C5(C)C)C4(C)C(=O)CC23C)O1 (centres undefined) , output reported GI50.
Response: > 100 µM (inactive)

Query: Input `C=CCn1c(-c2ccc(Cl)cc2Cl)cs/c1=N\c1c(C)n(C)n(-c2ccccc2)c1=O` , output reported GI50.
Response: 12.4 µM (inactive)

Query: Input `C#CCNCC(=O)O` , output reported GI50.
Response: > 100 µM (inactive)

Query: Input CCCCCCCCCCCCCC(=O)OCC(CCS(=O)(=O)O[C@H]1CC[C@@]2(C)C(=CC[C@@H]3C2CC[C@]2(C)C(=O)CCC32)C1)OC(=O)CCCCCCCCCCCCC (some centres undefined) , output reported GI50.
Response: > 100 µM (inactive)

Query: Input O=C1c2ccccc2N2Oc3ccccc3C12c1ccccc1 (centres undefined) , output reported GI50.
Response: > 100 µM (inactive)

Query: Input COC(=O)C(C(=O)C(=O)NC1=C(Cl)C(=O)c2ccccc2C1=O)c1csc(-n2nc(-c3ccccc3)cc2-c2ccccc2)n1 (centres undefined) , output reported GI50.
Response: > 100 µM (inactive)

###

Test system: SK-MEL-5
Assay: NCI tumour cell line growth inhibition, 48 h
Active and inactive are the calls of the source. Rule as the data show it: active = GI50 up to about 1.1 µM and inactive = higher.
measured-property: GI50

Solved cases (4 shown):
Query: Input CN(C)c1ccc(/C=C(\NC(=O)c2ccccc2)C(=O)Nc2ccccc2C(=O)NN2C(=O)CSC2c2ccc(N(C)C)cc2)cc1 (stereo not given) , output reported GI50.
Response: 94.6 µM (inactive)

Query: Input O=C(O)C(O)Cc1ccccn1 (stereo not given) , output reported GI50.
Response: > 100 µM (inactive)

Query: Input C=CCCC(=O)N1CCC(C(=O)OCC)C1=O (stereo not given) , output reported GI50.
Response: > 100 µM (inactive)

Query: Input `C=CCc1cccc2cc(C(=O)Nc3ccc(C)cc3)c(=N)oc12` , output reported GI50.
Response: > 100 µM (inactive)

Others:
Query: Input `CN(CCn1cnc2c1c(=O)n(C)c(=O)n2C)C1CCCCC1` , output reported GI50.
Response: > 100 µM (inactive)

Query: Input `N=C(N)SCCC(=O)CCSC(=N)N` , output reported GI50.
Response: > 100 µM (inactive)

Query: Input CCCCCCCCCCCCOP(=O)(O)OP(=O)(O)OCC1OC(n2cc(C)c(=O)[nH]c2=O)CC1O (stereo not given) , output reported GI50.
Response: > 100 µM (inactive)

Query: Input `O=C(NNC(=S)Nc1ccc(Br)cc1)c1cc(-c2ccccc2)nc2ccccc12` , output reported GI50.
Response: 15.8 µM (inactive)

Query: Input CC(=O)OCC1OC(Oc2cc(C)c(O)cc2C/C=C(\C)CC/C=C(\C)CC(=O)CC(C)C)C(O)C(OC(C)=O)C1OC(C)=O (stereo not given) , output reported GI50.
Response: 8.13 µM (inactive)

Query: Input COC(=O)C12C3C4(C(=O)OC)C1C1(C(=O)OC)C2C3(C(=O)OC)C41C(=O)N(C(C)C)C(C)C (stereo not given) , output reported GI50.
Response: > 100 µM (inactive)
